Hey, just so you know, these numbers are from ChEMBL document CHEMBL3988442.

target: Shiga toxin 2 (Escherichia coli O157:H7) (UniProt P09385+P09386); assay: E. coli 0.157:H7 Shiga Toxin SOP - stx2 screening assay; format: functional; parameters: scale not given: direction of the effect not stated beside the values; settings: 30 µM
MEASURED_PROPERTY: Percent Effect (%)
Report as a plain number; the unit % is understood.

Exercise: Return Percent Effect measured with Shiga toxin 2 (Escherichia coli O157:H7) (UniProt P09385+P09386) given this compound: CCC(CNC(=O)c1ccc(=O)[nH]n1)N1CCc2ccccc2C1 (stereo not given)
Key: -11.6

Exercise: Return Percent Effect measured with Shiga toxin 2 (Escherichia coli O157:H7) (UniProt P09385+P09386) given this compound: COC(C(=O)N1CCN(c2cccc(Cl)c2)C(=O)C1)c1ccccc1 (stereo not given)
Key: -0.212

Exercise: Return Percent Effect measured with Shiga toxin 2 (Escherichia coli O157:H7) (UniProt P09385+P09386) given this compound: Cc1ccccc1C1(CNc2nnc(C)c(C)c2C#N)CCOCC1
Key: 18.2

Exercise: Return Percent Effect measured with Shiga toxin 2 (Escherichia coli O157:H7) (UniProt P09385+P09386) given this compound: CN(CCc1ccc(F)cc1)Cc1nc2c(cnn2C)c(=O)[nH]1
Key: 14.7

Exercise: Return Percent Effect measured with Shiga toxin 2 (Escherichia coli O157:H7) (UniProt P09385+P09386) given this compound: Cc1cc(CN2CCc3nn(C)c(=O)cc3C2)on1
Key: 0.17

Exercise: Return Percent Effect measured with Shiga toxin 2 (Escherichia coli O157:H7) (UniProt P09385+P09386) given this compound: CN(CCOc1cccc(CN)c1)C1CCOCC1
Key: -50.4

Exercise: Return Percent Effect measured with Shiga toxin 2 (Escherichia coli O157:H7) (UniProt P09385+P09386) given this compound: Cc1cc(C)n(CC2CCCN2C(=O)c2ccc3[nH]nnc3c2)n1 (stereo not given)
Key: -26.6

Exercise: Return Percent Effect measured with Shiga toxin 2 (Escherichia coli O157:H7) (UniProt P09385+P09386) given this compound: CCCS(=O)(=O)NCc1cccnc1OCC
Key: -6.28

Exercise: Return Percent Effect measured with Shiga toxin 2 (Escherichia coli O157:H7) (UniProt P09385+P09386) given this compound: Cc1nccc([C@@H]2C[C@@H]3CCN(S(C)(=O)=O)C[C@H]3O2)n1
Key: 11.1

Exercise: Return Percent Effect measured with Shiga toxin 2 (Escherichia coli O157:H7) (UniProt P09385+P09386) given this compound: COc1ncccc1C(=O)N1CCC(c2nnc(C3CC3)o2)CC1
Key: 0.085

Exercise: Return Percent Effect measured with Shiga toxin 2 (Escherichia coli O157:H7) (UniProt P09385+P09386) given this compound: Cc1ccn(CCC(=O)N2CCOC(c3nc(-c4cccs4)no3)C2)n1 (stereo not given)
Key: 37.2

Exercise: Return Percent Effect measured with Shiga toxin 2 (Escherichia coli O157:H7) (UniProt P09385+P09386) given this compound: COc1cccc(OC)c1C(=O)N1CCN(c2ccccc2F)CC1
Key: 35.2

Exercise: Return Percent Effect measured with Shiga toxin 2 (Escherichia coli O157:H7) (UniProt P09385+P09386) given this compound: COc1ccc(C(=O)N2CCCC(C)C2)cc1F (stereo not given)
Key: 13.7

Exercise: Return Percent Effect measured with Shiga toxin 2 (Escherichia coli O157:H7) (UniProt P09385+P09386) given this compound: COCCNC(=O)[C@@]12CCO[C@@H]1CCN(Cc1c(C)noc1C)C2
Key: -12.8

Exercise: Return Percent Effect measured with Shiga toxin 2 (Escherichia coli O157:H7) (UniProt P09385+P09386) given this compound: Cc1cc(C)cc(NC(=O)CN2CCCC(n3cncn3)C2)c1 (stereo not given)
Key: 12.2

Exercise: Return Percent Effect measured with Shiga toxin 2 (Escherichia coli O157:H7) (UniProt P09385+P09386) given this compound: N#Cc1ccnc(N2CCN(Cc3cccc(F)c3)CC2)c1
Key: 12.2

Exercise: Return Percent Effect measured with Shiga toxin 2 (Escherichia coli O157:H7) (UniProt P09385+P09386) given this compound: CS(=O)(=O)NCCCNC(=O)c1cccc(-n2cccc2)c1
Key: -28.3

Exercise: Return Percent Effect measured with Shiga toxin 2 (Escherichia coli O157:H7) (UniProt P09385+P09386) given this compound: O=C(NS(=O)(=O)c1ccccc1Cl)c1cccc2c1OCCO2
Key: -2.92

Exercise: Return Percent Effect measured with Shiga toxin 2 (Escherichia coli O157:H7) (UniProt P09385+P09386) given this compound: NC(=O)C1CN(C(=O)Nc2ccccc2-c2cccs2)CCO1 (stereo not given)
Key: -14.7

Exercise: Return Percent Effect measured with Shiga toxin 2 (Escherichia coli O157:H7) (UniProt P09385+P09386) given this compound: Cc1cc(N2CCC3(CCC(=O)N(CC4CC4)C3)CC2)nc(N)n1
Key: 0.426

Exercise: Return Percent Effect measured with Shiga toxin 2 (Escherichia coli O157:H7) (UniProt P09385+P09386) given this compound: Cc1nc(CN2CCOC(CNc3cccnn3)C2)oc1C (stereo not given)
Key: 0.662

Exercise: Return Percent Effect measured with Shiga toxin 2 (Escherichia coli O157:H7) (UniProt P09385+P09386) given this compound: Cc1cc(C2CCCN(C(=O)c3cnccn3)C2)ccn1 (stereo not given)
Key: -14.3

Exercise: Return Percent Effect measured with Shiga toxin 2 (Escherichia coli O157:H7) (UniProt P09385+P09386) given this compound: Cc1cnn(CC2CCCN2C(=O)c2ccc3nnc(C)n3c2)c1 (stereo not given)
Key: -37.5

Exercise: Return Percent Effect measured with Shiga toxin 2 (Escherichia coli O157:H7) (UniProt P09385+P09386) given this compound: CCn1c(C)nnc1CN(C)C1CCN(CCCOC)C1 (stereo not given)
Key: 7.8

Exercise: Return Percent Effect measured with Shiga toxin 2 (Escherichia coli O157:H7) (UniProt P09385+P09386) given this compound: Cn1ccc(CN2CCC(Oc3ccccc3)CC2)cc1=O
Key: -5.66

Exercise: Return Percent Effect measured with Shiga toxin 2 (Escherichia coli O157:H7) (UniProt P09385+P09386) given this compound: CCc1csc(C2CCCN(C(=O)c3cnn(CC)c3)C2)n1 (stereo not given)
Key: -7.95

Exercise: Return Percent Effect measured with Shiga toxin 2 (Escherichia coli O157:H7) (UniProt P09385+P09386) given this compound: COCCNC(=O)NCc1ccc(OC(C)C)c(F)c1
Key: 29.6

Exercise: Return Percent Effect measured with Shiga toxin 2 (Escherichia coli O157:H7) (UniProt P09385+P09386) given this compound: O=C(c1ccc(F)c(F)c1)N1CCCC(Nc2ccc(F)cc2)C1 (stereo not given)
Key: 11.2

Exercise: Return Percent Effect measured with Shiga toxin 2 (Escherichia coli O157:H7) (UniProt P09385+P09386) given this compound: Cc1cnn(CC2CCCN2Cc2coc(-c3ccccc3)n2)c1 (stereo not given)
Key: -30.1

Exercise: Return Percent Effect measured with Shiga toxin 2 (Escherichia coli O157:H7) (UniProt P09385+P09386) given this compound: c1cncc(-c2ccc3c(c2)C2(CC3)CCN(c3nncs3)CC2)c1
Key: -7.47

Exercise: Return Percent Effect measured with Shiga toxin 2 (Escherichia coli O157:H7) (UniProt P09385+P09386) given this compound: O=C(Cn1ccc2sccc2c1=O)NCc1ccc2c(c1)OCO2
Key: -8.21

Exercise: Return Percent Effect measured with Shiga toxin 2 (Escherichia coli O157:H7) (UniProt P09385+P09386) given this compound: COC(=O)c1cccn1C1CCN(CC(=O)NC2CCCCC2)CC1
Key: 1.4

Exercise: Return Percent Effect measured with Shiga toxin 2 (Escherichia coli O157:H7) (UniProt P09385+P09386) given this compound: CCOCCN1CCN(Cc2nc(C3CC3)no2)CC1CC (stereo not given)
Key: 9.42

Exercise: Return Percent Effect measured with Shiga toxin 2 (Escherichia coli O157:H7) (UniProt P09385+P09386) given this compound: Nc1nc(C2CCN(C(=O)c3cscn3)CC2)cs1
Key: -10.9

Exercise: Return Percent Effect measured with Shiga toxin 2 (Escherichia coli O157:H7) (UniProt P09385+P09386) given this compound: c1csc(-c2nc(CN3CCCC3Cn3cncn3)co2)c1 (stereo not given)
Key: -0.336

Exercise: Return Percent Effect measured with Shiga toxin 2 (Escherichia coli O157:H7) (UniProt P09385+P09386) given this compound: Cn1cc(C(=O)NCc2cn3c(n2)CN(CC2CCOCC2)CC3)cn1
Key: -14.5

Exercise: Return Percent Effect measured with Shiga toxin 2 (Escherichia coli O157:H7) (UniProt P09385+P09386) given this compound: O=C(CCCNC(=O)C1CC1)Nc1cnn(-c2ccccc2Cl)c1
Key: -29.3

Exercise: Return Percent Effect measured with Shiga toxin 2 (Escherichia coli O157:H7) (UniProt P09385+P09386) given this compound: CCCN1C(=O)CC(N2CCN(c3ccc(F)cc3)CC2)C1=O (stereo not given)
Key: -15.7

Exercise: Return Percent Effect measured with Shiga toxin 2 (Escherichia coli O157:H7) (UniProt P09385+P09386) given this compound: CCCn1c(C)c(CC(=O)NC)c2c1CC(C)(C)CC2=O
Key: -13.3

Exercise: Return Percent Effect measured with Shiga toxin 2 (Escherichia coli O157:H7) (UniProt P09385+P09386) given this compound: Cc1ccc(C(CNCc2cnn(C(C)C)c2)N2CCOCC2)s1 (stereo not given)
Key: -11

Exercise: Return Percent Effect measured with Shiga toxin 2 (Escherichia coli O157:H7) (UniProt P09385+P09386) given this compound: CC(C)NC(=O)N1CCN(Cc2ccccn2)CC2(CC(=O)N(C)C2)C1 (stereo not given)
Key: -14.2

Exercise: Return Percent Effect measured with Shiga toxin 2 (Escherichia coli O157:H7) (UniProt P09385+P09386) given this compound: CCn1cc2c(n1)CN(CC1CC1)CC2COCC1CC1 (stereo not given)
Key: -2.1

Exercise: Return Percent Effect measured with Shiga toxin 2 (Escherichia coli O157:H7) (UniProt P09385+P09386) given this compound: O=C(c1cccc(CN2CCCC2)c1)N1CCCC(n2cncn2)C1 (stereo not given)
Key: 14

Exercise: Return Percent Effect measured with Shiga toxin 2 (Escherichia coli O157:H7) (UniProt P09385+P09386) given this compound: CN(C)CCN1CCC2(CCN(C(=O)c3ccc(F)cc3)CC2)C1=O
Key: -5.38

Exercise: Return Percent Effect measured with Shiga toxin 2 (Escherichia coli O157:H7) (UniProt P09385+P09386) given this compound: CC(C)c1cc(NCC(O)CO)n2nccc2n1 (stereo not given)
Key: -0.898
